System name: Dopamine, D2S (human recombinant) (Homo sapiens)
Sequence (P14416 1-414 isoform P14416-2): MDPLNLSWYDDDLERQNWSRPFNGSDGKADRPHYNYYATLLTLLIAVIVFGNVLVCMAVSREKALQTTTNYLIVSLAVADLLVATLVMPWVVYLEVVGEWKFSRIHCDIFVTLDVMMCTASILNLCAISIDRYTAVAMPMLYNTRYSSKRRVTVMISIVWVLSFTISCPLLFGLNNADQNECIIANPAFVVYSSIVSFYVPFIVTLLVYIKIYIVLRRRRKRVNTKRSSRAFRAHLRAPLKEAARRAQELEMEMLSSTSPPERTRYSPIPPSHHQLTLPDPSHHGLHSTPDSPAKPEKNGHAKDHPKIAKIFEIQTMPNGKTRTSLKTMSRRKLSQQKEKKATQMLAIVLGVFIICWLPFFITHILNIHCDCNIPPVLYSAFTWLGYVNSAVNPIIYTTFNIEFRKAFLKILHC
Assay summary: Dopamine, D2S (human recombinant) radioligand binding assay ([3H]Spiperone)
Condition set: human recombinant in CHO cells
Structures can show the parent of a compound that is named as a salt.
Metric: pKi
pKi is a log-scale quantity: -log10 of the concentration expressed in molar.

Asked: I'm curious: which pKi was measured for CCOC(=O)CCCOc1ccccc1N1CCN(CCCCOc2ccc3c(c2)NC(=O)CC3)CC1 [Compound 9a, hydrochloride] tested on Dopamine, D2S (human recombinant) (Homo sapiens)?
Given back: 8.77

Asked: Identify the measured pKi of O=C1CCc2ccc(C(=O)OCCCN3CCN(c4cccc(Cl)c4Cl)CC3)cc2N1 [Compound 24b, hydrochloride] for Dopamine, D2S (human recombinant) (Homo sapiens).
Given back: 7.77

Asked: pKi of O=C1CCc2ccc(COC(=O)CCCN3CCN(c4cccc(Cl)c4Cl)CC3)cc2N1 [Compound 39d] on Dopamine, D2S (human recombinant) (Homo sapiens)?
Given back: 7.89
